List of ED50 values.
System: methylphenidate
Test: Methylphenidate antagonism in mice
Type: in vivo
Conditions: Mus musculus, ip, 2 h, read-out: MePh antag. ED50 2 hr i.p., mice, test substance i.p., 2 hr before methylphenidate 60 mg/kg s.c.
Protocol: Methylphenidate antagonism (ED50 mg/kg i.p.) Perspex observation cages without bottom and lid, consisting of 5 sections each measuring 12×25×30 cm. 3×2 mice are used for each dose level. Two or 24 hours after injection of test substance, methylphenidate, 60 mg/kg, is injected s.c. After administration of methylphenidate the mice are placed in the observation cages, 2 in each cage, where they remain for exactly 1 hour. The cages were placed on corrugated paper, the corrugations facing upwards. […]

{"molecule": "Fc1ccc(C2CC(N3CCN(CC4CCCCC4)CC3)c3cc(F)ccc32)cc1 (stereo not drawn)", "ED50": "4 mg/kg"}
{"molecule": "CC(C)N1CCN(C2CC(c3ccc(F)cc3)c3ccc(Cl)cc32)CC1 (stereo not drawn)", "ED50": "0.8 mg/kg"}
{"molecule": "CSc1ccc2c(c1)C(N1CCN(CCCO)CC1)CC2c1ccc(F)cc1 (stereo not drawn)", "ED50": "0.8 mg/kg"}
